Assay: Plasma pharmacokinetics of emodepside, single ascending dose (SAD) and food effect study
Format: in vivo, human
Details: human, in vivo, po, 5 mg, SAD, single oral 5 mg IRT fasting; plasma, HPLC-MS/MS; mean
METRIC: AUC(0-t)
Answer with the value and then the unit.

Asked: # input compound: CC(C)C[C@H]1C(=O)O[C@H](Cc2ccc(N3CCOCC3)cc2)C(=O)N(C)[C@@H](CC(C)C)C(=O)O[C@H](C)C(=O)N(C)[C@@H](CC(C)C)C(=O)O[C@H](Cc2ccc(N3CCOCC3)cc2)C(=O)N(C)[C@@H](CC(C)C)C(=O)O[C@H](C)C(=O)N1C [emodepside] ; wanted: its AUC(0-t)
Given back: 501 ng·h/mL

###

Assay: Plasma pharmacokinetics of emodepside, single ascending dose (SAD) and food effect study
Type: in vivo, human
Details: human, in vivo, po, 2.5 mg, SAD, single oral 2.5 mg LSF fasting; plasma, HPLC-MS/MS; mean
METRIC: Cmax
Answer with the value and then the unit.

Asked: # input compound: CC(C)C[C@H]1C(=O)O[C@H](Cc2ccc(N3CCOCC3)cc2)C(=O)N(C)[C@@H](CC(C)C)C(=O)O[C@H](C)C(=O)N(C)[C@@H](CC(C)C)C(=O)O[C@H](Cc2ccc(N3CCOCC3)cc2)C(=O)N(C)[C@@H](CC(C)C)C(=O)O[C@H](C)C(=O)N1C [emodepside] ; wanted: its Cmax
Given back: 37.6 ng/mL

###

Experiment: Plasma pharmacokinetics of emodepside, single ascending dose (SAD) and food effect study
Type: in vivo, human
Settings: human, in vivo, po, 1 mg, SAD, single oral 1 mg LSF fasting; plasma, HPLC-MS/MS; mean
METRIC: Cmax (ng/mL)
API: value field is a number in ng/mL; no unit string.

Asked: # input compound: CC(C)C[C@H]1C(=O)O[C@H](Cc2ccc(N3CCOCC3)cc2)C(=O)N(C)[C@@H](CC(C)C)C(=O)O[C@H](C)C(=O)N(C)[C@@H](CC(C)C)C(=O)O[C@H](Cc2ccc(N3CCOCC3)cc2)C(=O)N(C)[C@@H](CC(C)C)C(=O)O[C@H](C)C(=O)N1C [emodepside] ; wanted: its Cmax
Given back: 18.6

###

Assay: Plasma pharmacokinetics of emodepside, single ascending dose (SAD) and food effect study
Type: in vivo, human
Settings: human, in vivo, po, 2.5 mg, SAD, single oral 2.5 mg LSF fasting; plasma; ln2/λz; mean; read-out: Terminal t ½ (converted)
METRIC: half-life
Answer with the value and then the unit.

Asked: # input compound: CC(C)C[C@H]1C(=O)O[C@H](Cc2ccc(N3CCOCC3)cc2)C(=O)N(C)[C@@H](CC(C)C)C(=O)O[C@H](C)C(=O)N(C)[C@@H](CC(C)C)C(=O)O[C@H](Cc2ccc(N3CCOCC3)cc2)C(=O)N(C)[C@@H](CC(C)C)C(=O)O[C@H](C)C(=O)N1C [emodepside] ; wanted: its half-life
Given back: 18.7 days

###

Test: Plasma pharmacokinetics of emodepside, multiple ascending dose (MAD) study
Format: in vivo, human
Details: human, plasma, po, 10 mg, 10 mg BID LSF fasting, Day 10, plasma, HPLC-MS/MS, mean (CV%)
METRIC: Cmax (ng/mL)
API: value field is a number in ng/mL; no unit string.

Asked: # input molecule: CC(C)C[C@H]1C(=O)O[C@H](Cc2ccc(N3CCOCC3)cc2)C(=O)N(C)[C@@H](CC(C)C)C(=O)O[C@H](C)C(=O)N(C)[C@@H](CC(C)C)C(=O)O[C@H](Cc2ccc(N3CCOCC3)cc2)C(=O)N(C)[C@@H](CC(C)C)C(=O)O[C@H](C)C(=O)N1C [emodepside] ; wanted: its Cmax
Given back: 349
